Entry source: the supplement of paper PMC7877785

Assay: self-splicing fitness, log relative to wild type (ln ratio); higher = more splicing; Tetrahymena group I intron in knt gene, E. coli kanamycin selection, DiMSum; sequences stand for … in CUCUCU…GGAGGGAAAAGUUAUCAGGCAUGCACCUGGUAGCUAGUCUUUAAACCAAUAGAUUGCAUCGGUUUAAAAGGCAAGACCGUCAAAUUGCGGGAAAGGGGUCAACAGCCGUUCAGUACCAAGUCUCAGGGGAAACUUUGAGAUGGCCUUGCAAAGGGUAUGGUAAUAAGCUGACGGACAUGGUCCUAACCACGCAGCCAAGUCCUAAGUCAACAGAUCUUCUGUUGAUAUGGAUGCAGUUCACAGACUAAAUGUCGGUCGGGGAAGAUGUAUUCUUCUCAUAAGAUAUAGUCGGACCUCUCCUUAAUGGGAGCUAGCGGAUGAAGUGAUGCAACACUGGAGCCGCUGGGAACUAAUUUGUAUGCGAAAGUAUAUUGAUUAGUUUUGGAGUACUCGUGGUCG;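 note: selection with 25 µg/mL kanamycin versus none on LB agar overnight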
Settings: 37 °C
Parameter threshold = -0.9. Response is Yes when self-splicing fitness (ln) meets or exceeds it, else No.

Answered cases to consult:
CCGAAGCAAUAUUACGACAG    Yes
CGAUAGCAAUAUUACGCCAG    Yes
UCUAAGCAAUAUUACGAGUG    Yes
AAUCAGCAAUAUUACGGCUU    Yes
UCAUAGCAAUAUUACGGGGU    No
GAAGAGCAAUAUUACGACGA    No
UAACAGCAAUAUUACGGUCA    Yes
GGUGAGCAAUAUUACGUAAU    No
UGCGAGCAAUAUUACGCUGC    No
AUAGAGCAAUAUUACGUGUG    No

Reported self-splicing fitness (ln) reaches at least -0.9 for "GGGGAGCAAUAUUACGCGGG" ?
No

* * *

Examples of sequences with documented self-splicing fitness (ln) follow.
Test: self-splicing fitness, log relative to wild type (ln ratio); higher = more splicing; Tetrahymena group I intron in knt gene, E. coli kanamycin selection, DiMSum; sequences stand for … in CUCUCU…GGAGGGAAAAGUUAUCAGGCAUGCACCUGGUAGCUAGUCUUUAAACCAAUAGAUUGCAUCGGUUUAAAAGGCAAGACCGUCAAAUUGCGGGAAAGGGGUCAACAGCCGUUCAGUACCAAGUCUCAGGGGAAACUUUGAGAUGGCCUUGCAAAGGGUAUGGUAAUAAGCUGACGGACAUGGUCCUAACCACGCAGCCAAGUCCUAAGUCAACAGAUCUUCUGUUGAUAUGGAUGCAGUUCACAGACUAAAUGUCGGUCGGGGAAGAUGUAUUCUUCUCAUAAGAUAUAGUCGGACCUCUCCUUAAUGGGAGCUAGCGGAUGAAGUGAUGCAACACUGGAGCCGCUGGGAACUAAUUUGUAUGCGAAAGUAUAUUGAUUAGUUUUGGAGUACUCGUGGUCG
Settings: 30 °C

Solved entries:
GCGCAGCAAUAUUACGCCUG    -2.75
UUCAAGCAAUAUUACGUGAC    -4.47

Could you share which self-splicing fitness (ln) value was measured for "ACUCAGCAAUAUUACGAGUC" ?
-5.21

Subsequent entry: "GCUCAGCAAUAUUACGUCGG"
-2.71

* * *

Test: self-splicing fitness, log relative to wild type (ln ratio); higher = more splicing; Tetrahymena group I intron in knt gene, E. coli kanamycin selection, DiMSum; sequences stand for … in CUCUCU…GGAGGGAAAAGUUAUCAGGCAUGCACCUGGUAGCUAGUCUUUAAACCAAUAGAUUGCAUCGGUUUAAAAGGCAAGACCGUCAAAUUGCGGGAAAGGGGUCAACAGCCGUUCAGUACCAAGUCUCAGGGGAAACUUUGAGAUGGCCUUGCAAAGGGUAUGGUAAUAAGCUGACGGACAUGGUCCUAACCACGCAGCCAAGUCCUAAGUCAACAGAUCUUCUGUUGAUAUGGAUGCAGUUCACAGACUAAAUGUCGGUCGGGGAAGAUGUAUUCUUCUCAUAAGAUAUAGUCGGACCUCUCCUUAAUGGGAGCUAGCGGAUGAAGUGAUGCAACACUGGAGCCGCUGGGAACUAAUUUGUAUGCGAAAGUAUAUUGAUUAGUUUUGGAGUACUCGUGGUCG
Conditions: 30 °C
Parameter threshold = -3. Response is satisfied when self-splicing fitness (ln) meets or exceeds it, else not satisfied.

Answered cases to consult:
GUACAGCAAUAUUACGCACC    satisfied
ACGCAGCAAUAUUACGUUAC    not satisfied
AUUUAGCAAUAUUACGUUAA    satisfied
UCAGAGCAAUAUUACGGCUG    satisfied
CUCCAGCAAUAUUACGAGGG    not satisfied
UGAAAGCAAUAUUACGACUC    satisfied
GUAGAGCAAUAUUACGCGGA    satisfied
UGAGAGCAAUAUUACGCUUU    not satisfied

Reported self-splicing fitness (ln) reaches at least -3 for "ACUAAGCAAUAUUACGGAGC" ?
satisfied

Subsequent entry: "ACACAGCAAUAUUACGCAAC"
not satisfied

Subsequent entry: "CCCGAGCAAUAUUACGGAUG"
satisfied

Subsequent entry: "GGUCAGCAAUAUUACGUAGC"
satisfied

Subsequent entry: "AAAAAGCAAUAUUACGUAUG"
satisfied

Subsequent entry: "CUGGAGCAAUAUUACGAGAG"
not satisfied
